test system: Staphylococcus aureus; experiment: Antibacterial activity against penicillin-susceptible Staphylococcus aureus ATCC 25923 after 24 hrs by broth microdilution method; assay type: functional; conditions: ATCC 25923, 24 h
MIC strictly less than 8 µg/mL = met. Otherwise not met.

See these solved cases before continuing.
Cc1cc(-c2ccc(OC(F)(F)F)cc2)cc2c3ccccc3c[n+](C)c12.[Cl-]	met
COc1ccc(-c2cc(C)c3c(c2)c2ccccc2c[n+]3C)cc1.[Cl-]	met
C[n+]1cc2ccccc2c2cc(-c3ccccc3C(F)(F)F)ccc21.[Cl-]	not met

Kindly review the next compound as well.
In plain terms, does `COc1cc(-c2ccc(OC(F)(F)F)cc2)cc2c3ccccc3c[n+](C)c12.[Cl-]` come in under 8 µg/mL for MIC?
met

----------
tested on: Staphylococcus epidermidis; experiment: Antibacterial activity against penicillin-resistant Staphylococcus epidermidis clinical isolate after 24 hrs by broth microdilution method; type: functional
readout: MIC

Look over these answered cases.
C[n+]1cc2ccccc2c2cc(-c3ccc(C(F)(F)F)cc3)ccc21.[Cl-]	> 64 µg/mL
COc1cc(/C=C/C(=O)CC(=O)/C=C/c2ccc(O)c(OC)c2)ccc1O	> 64 µg/mL

--- query ---
What value of MIC has been recorded for this entry: `C[n+]1cc2ccccc2c2cc(-c3ccc(-c4ccccc4)cc3)ccc21.[Cl-]`
> 64 µg/mL
